Reported pIC50 values follow for various compounds
target: ULK1 (Homo sapiens, UniProt O75385); construct: purchased Promega V3521; experiment: Inhibition of ULK1 protein activity (phosphorylation function), ADP-Glo method; format: biochemical; details: ADP-Glo; ULK1 (Promega), ATP and MBP substrate, 60 min at room temperature; 10 concentrations, maximum 10 µM; read-out: ULK1 IC50
Sequence (O75385 whole entry): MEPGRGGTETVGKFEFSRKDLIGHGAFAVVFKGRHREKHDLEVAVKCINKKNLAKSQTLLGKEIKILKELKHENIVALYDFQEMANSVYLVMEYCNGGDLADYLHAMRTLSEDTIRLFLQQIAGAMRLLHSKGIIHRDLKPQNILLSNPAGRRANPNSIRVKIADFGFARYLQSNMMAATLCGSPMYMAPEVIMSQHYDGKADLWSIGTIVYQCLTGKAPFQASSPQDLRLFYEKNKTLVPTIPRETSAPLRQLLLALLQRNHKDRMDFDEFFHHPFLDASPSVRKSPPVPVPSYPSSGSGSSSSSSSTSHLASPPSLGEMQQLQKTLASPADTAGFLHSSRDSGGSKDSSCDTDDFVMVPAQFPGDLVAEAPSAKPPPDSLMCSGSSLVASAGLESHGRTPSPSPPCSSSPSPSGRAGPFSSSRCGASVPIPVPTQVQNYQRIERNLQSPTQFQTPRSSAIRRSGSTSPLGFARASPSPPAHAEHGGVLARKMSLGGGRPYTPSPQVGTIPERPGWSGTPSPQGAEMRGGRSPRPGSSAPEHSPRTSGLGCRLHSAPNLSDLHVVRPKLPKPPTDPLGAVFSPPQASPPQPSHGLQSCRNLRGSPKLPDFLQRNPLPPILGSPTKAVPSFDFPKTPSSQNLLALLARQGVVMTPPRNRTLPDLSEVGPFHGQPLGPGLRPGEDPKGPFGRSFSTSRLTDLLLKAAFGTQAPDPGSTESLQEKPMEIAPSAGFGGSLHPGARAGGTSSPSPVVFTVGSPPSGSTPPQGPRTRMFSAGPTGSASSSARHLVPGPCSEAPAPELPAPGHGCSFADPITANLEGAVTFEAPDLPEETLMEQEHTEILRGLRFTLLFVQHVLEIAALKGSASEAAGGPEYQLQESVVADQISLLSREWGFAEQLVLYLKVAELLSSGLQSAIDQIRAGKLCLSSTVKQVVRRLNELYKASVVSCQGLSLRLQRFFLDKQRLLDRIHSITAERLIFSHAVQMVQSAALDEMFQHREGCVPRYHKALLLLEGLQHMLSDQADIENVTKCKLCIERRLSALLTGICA
pIC50: −log10 of the molar value.

Example entries and their recorded answers appear below.
>>> observed_result("CC(=O)N1CCN2c3ccc(Nc4ncc(C(F)(F)F)c(N5CCC6(CCN(C)C6)C5)n4)cc3COCC2C1 (stereo not shown)")
"> 7.00"
>>> observed_result("CN1CCN2c3ccc(Nc4ncc(C(F)(F)F)c(OCCCN5CCCOC5=O)n4)cc3COCC2C1 (stereo not shown)")
"> 7.00"

In: Could you share which pIC50 value was measured for CN1CCC2(CCN(c3nc(Nc4ccc5c(c4)COCC4CN(C6COC6)CCN54)ncc3C(F)(F)F)C2)C1 (stereo not shown) ?
Out: > 7.00

In: Same lookup for CN1CCN2c3ccc(Nc4ncc(C(F)(F)F)c(OCCCn5nccc5Cl)n4)cc3COCC2C1 (stereo not shown) , please.
Out: > 7.00
